Value source: patent US20040253247A1

Here, each record is paired with measured pIC50 data.
Tested on: rat albumin (rat, UniProt P02770 25-608)
Sequence (P02770 25-608 limits assumed): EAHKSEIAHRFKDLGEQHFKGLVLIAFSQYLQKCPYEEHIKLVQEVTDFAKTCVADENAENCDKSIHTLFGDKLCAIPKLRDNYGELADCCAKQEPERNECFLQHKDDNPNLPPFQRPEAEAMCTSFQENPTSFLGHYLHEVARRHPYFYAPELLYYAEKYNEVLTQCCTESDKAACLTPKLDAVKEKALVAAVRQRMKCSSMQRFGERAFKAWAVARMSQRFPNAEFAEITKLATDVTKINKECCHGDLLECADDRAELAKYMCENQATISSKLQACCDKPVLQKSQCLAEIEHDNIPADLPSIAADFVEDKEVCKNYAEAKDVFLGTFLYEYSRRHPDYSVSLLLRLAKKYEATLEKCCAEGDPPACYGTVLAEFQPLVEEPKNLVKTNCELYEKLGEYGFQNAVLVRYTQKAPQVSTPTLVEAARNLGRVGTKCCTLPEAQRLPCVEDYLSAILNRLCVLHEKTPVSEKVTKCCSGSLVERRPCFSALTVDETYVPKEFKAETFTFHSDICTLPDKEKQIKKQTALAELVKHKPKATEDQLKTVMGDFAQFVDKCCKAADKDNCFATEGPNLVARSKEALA
Experiment summary: SA08b binding assay: competition with biotinylated SA08b for immobilized albumin
Bridges are numbered along the chain shown (N, C = ends). Where no end group is shown, it is not given here. code n = not defined here
pIC50 here is simply -log10 of the concentration when that concentration is written in mol/L.

These recorded examples may help you get a feel for the data.
binder="QGLIGDICLPRWGCLWGDSV-{code n} (disulfide 8-14 (inferred); reading uncertain; also: printed as Gln-Gly-Leu-Ile-Gly-Asp-Ile-Cys-Leu-Pro-Arg-Trp-Gly-Cys-Leu-Trp-Gly-Asp-Ser-Val, synthesized peptide) [SA07]" numeric_value=7.46
binder="Ac-EDICLPRWGCLWEDD-{code n} (disulfide 4-10 (inferred); reading uncertain; also: printed as Glu-Asp-Ile-Cys-Leu-Pro-Arg-Trp-Gly-Cys-Leu-Trp-Glu-Asp-Asp, synthesized peptide) [SA09]" numeric_value=6.59
binder="DICLPRWGCLW-{code n} (disulfide 3-9 (inferred); reading uncertain; also: printed as Asp-Ile-Cys-Leu-Pro-Arg-Trp-Gly-Cys-Leu-Trp, synthesized peptide) [SA04]" numeric_value=6.10

So, Ac-MEDICLPRWGCLWEDD-{code n} (disulfide 5-11 (inferred); reading uncertain; also: printed as Met-Glu-Asp-Ile-Cys-Leu-Pro-Arg-Trp-Gly-Cys-Leu-Trp-Glu-Asp-Asp, synthesized peptide) [SA11] ? Its pIC50 was 6.63
